- Tested on: MCF7
- EXPERIMENT SUMMARY: Antiproliferative activity against human MCF7 cells assessed as […] cell proliferation at 10 uM incubated for 48 hrs in presence of 10 uM of CDDP by WST-1 assay relative to control
- Assay type: functional

RECORD SMILES | Activity
CCN1CCN(C(=O)c2cc(-c3ccc(S(C)(=O)=O)cc3)[nH]n2)CC1 | 65%
CC(C)S(=O)(=O)c1ccc(-c2cnc3[nH]cc(CN4CCc5ccccc5C4)c3c2)cc1 | 62%
CC(C)S(=O)(=O)c1ccc(-c2cnc3[nH]c(C(=O)Nc4ccc(N(C)C)cc4)cc3c2)cc1 | 68%
CCN(CC)c1ccc(CNC(=O)c2c[nH]c3ncc(-c4ccc(S(C)(=O)=O)cc4)cc23)cc1 | 59%
CS(=O)(=O)c1ccc(-c2cc(C(=O)NCc3ccccc3)n[nH]2)cc1 | 63%
